- Test system: HL-60
- Assay info: NCI tumour cell line growth inhibition, 48 h
Active and inactive are the calls of the source. Rule as the data show it: active = GI50 up to about 1.1 µM and inactive = higher.
Kindly supply the reported GI50 values for the records listed here.

The molecule listed as Cc1cc2nc3c(C#N)c4c(c(Nc5ccc(F)cc5)n3c2cc1C)CCC4 shows GI50 equal to > 100 µM (inactive)

GET /value?item= NCCN(CCN(C(=O)Nc1ccccc1)c1ccccc1)C(=O)Nc1ccccc1 &field=GI50 returns 18.9 µM (inactive)

For reference, reported GI50 for CSCCOC(=O)C(=[N+]=[N-])c1ccc([N+](=O)[O-])cc1 stands at > 100 µM (inactive)

====

- Tested on: RXF 393
- Assay info: NCI tumour cell line growth inhibition, 48 h
Active and inactive are the calls of the source. Rule as the data show it: active = GI50 up to about 1.1 µM and inactive = higher.
Assay readout: GI50

The observed GI50 for NCCCCNc1ccc2c(=O)[nH][nH]c(=O)c2c1 when tested with RXF 393 stands at > 100 µM (inactive)

Record O=[N+]([O-])c1cc(I)cc(/C=N/NS(=O)(=O)c2ccc(Cl)cc2)c1O has RXF 393 GI50 equal to 23.4 µM (inactive)

Measured on RXF 393, COc1cc2c(c(OC)c1OC)[C@@H]1CCCCC[C@@H]1CCC2=O has a documented GI50 of > 100 µM (inactive)

Known value: RXF 393 GI50 of the molecule CC(=O)/N=C1/N(/C=C2\C(=O)Oc3ccccc3C2=O)C(=O)/C(=C/c2ccc(NC(C)=O)cc2)N1C equals > 100 µM (inactive)

I looked up C[C@]12Cc3conc3C(O)=C1CC[C@@H]1C2CC[C@@]2(C)C1CC[C@@H]2O (stereo not given in full) and its GI50 for RXF 393 was 17.4 µM (inactive)

Query COc1cc2c(cc1OCc1ccccc1)NC(=S)[C@@H]1CCCN1C2=S on RXF 393; GI50 returned: > 100 µM (inactive)

Record for C/N=C(\N)c1ccc(NC(=N)c2ccc(C(=N)Nc3ccc(/C(N)=N/C)cc3)cc2)cc1 under target or system RXF 393: GI50 reported as > 100 µM (inactive)

// returns GI50 for COC(=O)NC(=O)c1cn(C2CCCCC2)c(=O)[nH]c1=O with RXF 393; value = > 100 µM (inactive)

Reported GI50 (RXF 393) for entry Cc1cc2nc3c(C#N)c4c(c(Nc5ccc(F)cc5)n3c2cc1C)CCC4 is > 100 µM (inactive)

Fill in: RXF 393 GI50 for CCOC1OCCCC1Br (stereo not given) = > 100 µM (inactive)
